This collection of values is drawn from patent US10428140B2.

Target: T1, human EphA8 (Homo sapiens, UniProt P29322)
T1 construct: a protein of the extracellular region of each human Eph receptor fused with the SEAP protein and the His tag; made in house; host or cells: Expi293F cells (culture supernatant)
T1 sequence (P29322 28-542 limits assumed): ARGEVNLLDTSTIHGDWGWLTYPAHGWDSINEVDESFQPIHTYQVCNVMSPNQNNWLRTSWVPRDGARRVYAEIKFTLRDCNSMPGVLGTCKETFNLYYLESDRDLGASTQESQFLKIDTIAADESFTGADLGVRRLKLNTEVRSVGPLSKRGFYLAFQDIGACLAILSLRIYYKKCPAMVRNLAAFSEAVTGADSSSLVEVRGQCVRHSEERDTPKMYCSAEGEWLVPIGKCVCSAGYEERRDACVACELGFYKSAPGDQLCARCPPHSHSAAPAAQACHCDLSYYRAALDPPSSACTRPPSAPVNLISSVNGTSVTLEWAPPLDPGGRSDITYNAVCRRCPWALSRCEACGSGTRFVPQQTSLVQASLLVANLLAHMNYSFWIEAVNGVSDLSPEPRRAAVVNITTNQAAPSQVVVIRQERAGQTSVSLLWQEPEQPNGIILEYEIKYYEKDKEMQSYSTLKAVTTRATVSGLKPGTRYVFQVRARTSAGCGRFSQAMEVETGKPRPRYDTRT
Assay: Selectivity ELISA of humanized antibodies for human Eph receptor
Assay type: binding
Settings: coated protein 1 nM
observed-property: hEphA8-SEAP-: absorbance at 450 nm, percentage with respect to hEphA4-SEAP-His as 100% (%)
Supply the numeric figure in %, leaving out any unit text.

{"molecule": "157 (antibody, V domains shown, synthetic humanized antibody heavy chain variable region sequence; synthetic humanized antibody light chain variable region sequence) VH: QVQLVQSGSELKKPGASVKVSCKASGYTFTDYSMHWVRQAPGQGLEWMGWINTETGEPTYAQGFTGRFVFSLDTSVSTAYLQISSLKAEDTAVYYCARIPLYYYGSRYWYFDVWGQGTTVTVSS VL: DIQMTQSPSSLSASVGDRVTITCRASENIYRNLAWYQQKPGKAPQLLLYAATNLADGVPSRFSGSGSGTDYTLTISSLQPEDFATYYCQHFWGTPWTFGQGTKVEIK", "units-label": "%", "observed-result": 6.0}

Now consider a different molecule.
INPUT: Give its hEphA8-SEAP-: absorbance at 450 nm, percentage with respect to hEphA4-SEAP-His as 100% value. Item: 82 (antibody, V domains shown, constant regions without entry; synthetic humanized antibody light chain variable region sequence; synthetic humanized antibody heavy chain variable region sequence) VL: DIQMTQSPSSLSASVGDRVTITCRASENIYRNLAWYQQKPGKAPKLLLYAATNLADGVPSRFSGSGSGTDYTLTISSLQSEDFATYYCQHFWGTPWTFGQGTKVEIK VH: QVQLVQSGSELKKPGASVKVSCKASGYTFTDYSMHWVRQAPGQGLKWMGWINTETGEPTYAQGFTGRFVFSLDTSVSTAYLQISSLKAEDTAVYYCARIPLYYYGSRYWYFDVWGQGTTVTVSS
OUTPUT: 5.8
